# measured-target: SUMO-activating enzyme (Homo sapiens)
# Sequence (Q9UBE0 whole entry): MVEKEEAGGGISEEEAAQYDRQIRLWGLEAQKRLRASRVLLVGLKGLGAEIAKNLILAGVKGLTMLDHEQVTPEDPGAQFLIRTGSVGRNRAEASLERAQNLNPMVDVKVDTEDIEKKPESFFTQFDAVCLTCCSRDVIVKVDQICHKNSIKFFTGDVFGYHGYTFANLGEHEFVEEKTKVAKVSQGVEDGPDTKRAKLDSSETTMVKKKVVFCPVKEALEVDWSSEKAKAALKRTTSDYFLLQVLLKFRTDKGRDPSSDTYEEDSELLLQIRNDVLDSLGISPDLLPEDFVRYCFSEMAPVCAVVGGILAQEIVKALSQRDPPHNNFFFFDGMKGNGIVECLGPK
# Sequence (Q9UBT2 whole entry): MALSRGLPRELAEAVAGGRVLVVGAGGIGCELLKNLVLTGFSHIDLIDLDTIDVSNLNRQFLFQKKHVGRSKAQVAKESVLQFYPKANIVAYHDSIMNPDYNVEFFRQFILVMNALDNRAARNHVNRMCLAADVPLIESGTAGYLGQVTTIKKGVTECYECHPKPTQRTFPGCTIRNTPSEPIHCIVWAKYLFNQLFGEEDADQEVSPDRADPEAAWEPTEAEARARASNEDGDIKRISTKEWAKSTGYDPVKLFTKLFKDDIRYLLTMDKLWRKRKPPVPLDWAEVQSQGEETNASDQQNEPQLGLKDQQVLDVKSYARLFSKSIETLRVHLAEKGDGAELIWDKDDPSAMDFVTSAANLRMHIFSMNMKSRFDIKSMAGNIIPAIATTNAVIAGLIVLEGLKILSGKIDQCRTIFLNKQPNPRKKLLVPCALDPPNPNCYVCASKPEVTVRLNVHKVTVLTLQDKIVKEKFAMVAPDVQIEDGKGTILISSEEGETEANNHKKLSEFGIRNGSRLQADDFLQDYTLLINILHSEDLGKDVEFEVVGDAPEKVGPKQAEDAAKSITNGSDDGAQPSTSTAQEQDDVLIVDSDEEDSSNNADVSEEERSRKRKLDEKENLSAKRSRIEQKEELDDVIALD
# protocol-summary: blockers of UBC9-mediated SUMO conjugation – biochemical, AlphaScreen, SUMOylation inhibitor project, confirmation (AID 2018)
# Format: functional
Active and inactive are the calls of the source.
Lab note: assign the record to one of yes (1) for active, no (0) for inactive

>>> df
                                test_smiles  label_class
0  N=C1S/C(=C\c2ccco2)C(=O)N1c1ccc2c(c1)OCO2      yes (1)
1  O=C(O)c1ccc(/C=N/NC(=O)c2ccc(CN3c4cccc5cccc(c45)S3(=O)=O)cc2)cc1      yes (1)
2  O=C(COc1ccc(Cl)cc1)Nc1nnc(-c2ccc3c(c2)CCCC3)o1       no (0)

Could you now consider this next molecule?
Input line: Per the records of this test, what outcome belongs to Nc1ncnc2c1ncn2[C@@H]1O[C@H](COP(=O)(O)O)[C@@H](O)[C@@H]1O ?
Output line: yes (1)

###

# measured-target: Heat shock factor protein 1 (Mus musculus)
# Sequence (P38532 whole entry): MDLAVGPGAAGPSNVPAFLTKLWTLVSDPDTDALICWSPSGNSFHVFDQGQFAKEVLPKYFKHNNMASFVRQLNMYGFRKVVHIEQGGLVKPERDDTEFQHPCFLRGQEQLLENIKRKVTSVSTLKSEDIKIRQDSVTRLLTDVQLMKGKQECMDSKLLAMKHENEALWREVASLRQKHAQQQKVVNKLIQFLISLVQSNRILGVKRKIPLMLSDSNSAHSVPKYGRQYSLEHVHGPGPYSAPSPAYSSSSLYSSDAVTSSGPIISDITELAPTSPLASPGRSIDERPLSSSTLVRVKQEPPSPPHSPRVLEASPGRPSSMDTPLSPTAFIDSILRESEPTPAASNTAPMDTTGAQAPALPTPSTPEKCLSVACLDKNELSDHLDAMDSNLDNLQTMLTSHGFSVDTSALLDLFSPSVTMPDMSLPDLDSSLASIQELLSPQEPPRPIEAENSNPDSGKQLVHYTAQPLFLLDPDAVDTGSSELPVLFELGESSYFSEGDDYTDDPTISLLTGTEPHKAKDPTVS
# protocol-summary: decrease of HSF1-responsive luciferase luminescence – cell-based, NIH3T3, dose retest, confirmation (AID 2382);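 note: NIH3T3 fibroblasts with HSF1-driven luciferase reporter stressed by proteasome inhibitor MG132; luminescence from HSF1-driven luciferase expression after 8 hours of MG132 stress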
# Assay type: functional
The source made the active and inactive calls.
quantity: EC50

Consider the reported EC50 for these molecules:
In [3]: df
Out[3]:
                                   molecule  quantity   reported_measurement
0  CNC(=O)C1C(S)=NC(N)=C(C#N)C1c1ccccc1 (stereo unspecified)      EC50         19 µM (active)
1   CCOC(=O)Cc1nnc2c(Nc3ccccc3F)nc3nonc3n12      EC50  > 195 µM (not active)
2  CCOC(=O)C1(Cc2ccc(OC)cc2)CCN(C(=O)c2csc(C)n2)CC1      EC50  > 195 µM (not active)
3  Cc1ccccc1OCC(=O)Nc1ccc2c(c1)C(=O)N(CCC(=O)O)C2=O      EC50       32.6 µM (active)
4        c1csc(-c2nnsc2-c2nc3ccccc3[nH]2)c1      EC50  > 195 µM (not active)

Here is the next item to consider.
Input line: For COc1cc(NC(=O)CSc2nnnn2-c2ccccc2)cc(OC)c1OC , write its EC50.
Output line: > 195 µM (not active)

###

# measured-target: UniProtKB P41145
# Sequence (P41145 whole entry): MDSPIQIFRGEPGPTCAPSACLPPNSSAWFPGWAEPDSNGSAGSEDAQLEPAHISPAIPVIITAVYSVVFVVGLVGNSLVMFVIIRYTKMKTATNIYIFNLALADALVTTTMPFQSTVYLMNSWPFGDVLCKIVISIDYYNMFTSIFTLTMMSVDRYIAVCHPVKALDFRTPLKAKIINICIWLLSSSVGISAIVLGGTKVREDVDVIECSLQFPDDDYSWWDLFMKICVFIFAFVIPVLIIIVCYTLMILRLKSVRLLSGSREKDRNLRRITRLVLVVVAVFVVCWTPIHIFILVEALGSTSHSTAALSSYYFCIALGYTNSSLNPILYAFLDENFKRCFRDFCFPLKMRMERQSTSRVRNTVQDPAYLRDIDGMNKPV
# Type: functional
quantity: EC50 (nM)
Respond with the bare value in nM.

Input line: For CC(C)(C)c1ccc(CSc2nnc(-c3ccccn3)n2Cc2ccco2)cc1 , write its EC50.
Output line: 2180

###

# measured-target: Paired box protein Pax-8 (Homo sapiens, UniProt Q06710)
# Sequence (Q06710 whole entry): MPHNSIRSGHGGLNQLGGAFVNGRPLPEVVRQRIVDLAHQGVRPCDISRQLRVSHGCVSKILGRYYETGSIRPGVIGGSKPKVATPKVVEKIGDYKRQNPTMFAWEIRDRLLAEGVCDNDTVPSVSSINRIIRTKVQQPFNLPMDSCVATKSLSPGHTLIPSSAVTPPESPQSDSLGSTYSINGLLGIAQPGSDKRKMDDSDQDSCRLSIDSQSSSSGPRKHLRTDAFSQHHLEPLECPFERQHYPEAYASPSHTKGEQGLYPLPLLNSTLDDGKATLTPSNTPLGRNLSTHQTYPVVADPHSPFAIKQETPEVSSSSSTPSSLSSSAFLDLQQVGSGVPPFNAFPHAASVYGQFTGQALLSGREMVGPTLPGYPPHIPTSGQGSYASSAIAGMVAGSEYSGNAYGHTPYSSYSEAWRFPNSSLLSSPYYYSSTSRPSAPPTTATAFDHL
# protocol-summary: PAX8 transcriptional activity inhibition in RMG-I – RMG-I cells, luciferase, cherry-pick, dose response (AID 687027);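 note: luciferase reporter driven by Pax8 target thyroperoxidase promoter measured by SteadyGlo luminescence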
# Assay type: functional, cell-based
Active and inactive are the calls of the source.
quantity: AC50

                                   compound  quantity  reported_measurement
0  CCc1cc(-c2n[nH]c(C)c2-c2nc3ccccc3n2C)c(O)cc1O      AC50      40.6 µM (active)

Input line: For CC1(Cc2ccc(OC(F)(F)F)cc2)C(=O)Nc2ccc(S(=O)(=O)NC3CCCCC3)cc21 (stereo not given) , write its AC50.
Output line: 9.35 µM (active)

Input line: For C[C@H](CO)N1C[C@H](C)[C@@H](CN(C)CC2CCCCC2)Oc2ccc(NC(=O)Nc3ccc4c(c3)OCO4)cc2CC1=O , write its AC50.
Output line: 11 µM (active)

Input line: For CC(=O)c1cccc(-c2csc3ncnc(Sc4nnnn4C)c23)c1 , write its AC50.
Output line: 3.1 µM (active)

Input line: For O=C1/C(=C/c2ccccc2)SC(=S)N1CC(=O)N1CCCCC1c1cccnc1 (stereo not given) , write its AC50.
Output line: 4.37 µM (active)
